- target.under.test: Matrix metalloproteinase-9 (Homo sapiens, UniProt P14780)
- Sequence (P14780 whole entry): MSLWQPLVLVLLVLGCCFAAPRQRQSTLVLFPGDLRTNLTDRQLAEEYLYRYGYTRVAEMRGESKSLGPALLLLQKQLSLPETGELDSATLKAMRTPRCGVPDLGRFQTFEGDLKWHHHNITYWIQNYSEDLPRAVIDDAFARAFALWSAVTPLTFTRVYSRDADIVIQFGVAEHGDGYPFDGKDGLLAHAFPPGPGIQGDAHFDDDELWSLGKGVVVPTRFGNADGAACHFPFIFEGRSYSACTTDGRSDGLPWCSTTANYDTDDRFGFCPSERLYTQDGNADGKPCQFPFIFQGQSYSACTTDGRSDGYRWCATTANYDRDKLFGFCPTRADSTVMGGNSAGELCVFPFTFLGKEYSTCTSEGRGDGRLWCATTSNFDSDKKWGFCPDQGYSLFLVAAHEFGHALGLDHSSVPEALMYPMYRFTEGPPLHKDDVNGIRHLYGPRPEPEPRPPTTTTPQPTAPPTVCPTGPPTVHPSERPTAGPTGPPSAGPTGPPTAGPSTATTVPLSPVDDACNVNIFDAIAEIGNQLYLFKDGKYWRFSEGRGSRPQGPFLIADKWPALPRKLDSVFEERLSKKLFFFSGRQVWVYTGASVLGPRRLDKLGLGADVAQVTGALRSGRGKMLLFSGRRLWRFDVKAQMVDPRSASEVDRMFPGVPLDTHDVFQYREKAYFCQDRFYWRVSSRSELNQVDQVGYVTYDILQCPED
- experimental.details: Percent remaining enzyme activity (RA) in human gelatinase B (matrix metalloprotease-9)
- Design: concentration or dose not given beside the values
observation.type: residual activity (%)

1. C[C@H](NC(=O)[C@H](CC(=O)OCc1ccccc1)NC(=O)C(=O)NO)c1ccccc1
2. CCCC[C@H](NC(=O)C(=O)NO)C(=O)N[C@H](Cc1ccc(OCc2ccccc2)cc1)C(=O)N(C)C
Q: Of the two listed items, 1 and 2 , which carries the larger residual activity figure? Select an item and report its label.
Ans: 2

###

- target.under.test: Neutrophil collagenase (Homo sapiens)
- experimental.details: Tested for its inhibitory activity against neutrophil collagenase (Matrix metalloprotease-8)
- Sequence (P22894 whole entry): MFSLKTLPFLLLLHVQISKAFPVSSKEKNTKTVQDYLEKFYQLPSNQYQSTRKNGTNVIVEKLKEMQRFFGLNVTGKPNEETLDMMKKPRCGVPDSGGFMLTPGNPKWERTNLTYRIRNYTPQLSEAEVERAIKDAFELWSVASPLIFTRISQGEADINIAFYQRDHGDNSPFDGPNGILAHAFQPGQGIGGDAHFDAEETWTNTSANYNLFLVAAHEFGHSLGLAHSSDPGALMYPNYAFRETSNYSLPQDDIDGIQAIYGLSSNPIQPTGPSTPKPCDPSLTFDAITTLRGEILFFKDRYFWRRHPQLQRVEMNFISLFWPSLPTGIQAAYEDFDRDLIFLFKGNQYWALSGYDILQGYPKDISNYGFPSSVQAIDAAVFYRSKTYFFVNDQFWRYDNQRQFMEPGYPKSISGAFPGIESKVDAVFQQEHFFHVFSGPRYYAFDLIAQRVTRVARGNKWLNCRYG
pKi: −log10 of the molar value.
observation.type: pKi

molecule: CNC(=O)[C@H](Cc1ccc(OCc2ccccc2)cc1)NC(=O)C(=O)NO
target.under.test: Neutrophil collagenase (Homo sapiens)
value.observed: 5.82

1. CC(C)C[C@H](NC(=O)C(=O)NO)C(=O)N[C@@H](C)c1ccccc1
2. CCCCC(CC)COCCCNC(=O)C(=O)NO (configuration not stated)
Q: Of the two listed items, 1 and 2 , which carries the larger pKi figure? Select an item and report its label.
Ans: 1

A. C[C@H](NC(=O)[C@H](Cc1ccc(NC(=O)Nc2ccccc2)cc1)NC(=O)C(=O)NO)c1ccccc1
B. C[C@H](NC(=O)[C@H](Cc1cccc2ccccc12)NC(=O)C(=O)NO)c1ccccc1
Q: // task: argmin of pKi over [ A , B ] Select an item and report its label.
Ans: A

1. CC(OCc1ccccc1)[C@H](NC(=O)C(=O)NO)C(=O)N[C@@H](C)c1ccccc1 (some centres not stated)
2. CN(C)C(=O)[C@H](Cc1ccc2ccccc2c1)NC(=O)C(=O)NO
Q: Of the two listed items, 1 and 2 , which carries the larger pKi figure? Select an item and report its label.
Ans: 1
(1: 5.52, 2: 5.22)

###

- target.under.test: Matrix metalloproteinase-14 (Homo sapiens, UniProt P50281)
- experimental.details: Percent remaining enzyme activity (RA) in catalytic domains of the membrane type MT1-MMP (matrix metalloprotease-14)
- Set-up: concentration or dose not given beside the values
observation.type: residual activity (%)

Examples with answers:
compound.smiles: O=C(NO)C(=O)NCCc1c[nH]c2ccc(Cl)cc12
u: %
value.observed: 35
//
compound.smiles: C[C@H](NC(=O)[C@H](Cc1c[nH]c2ccccc12)NC(=O)C(=O)NO)c1ccccc1
u: %
value.observed: 36
//
compound.smiles: CN(C)C(=O)[C@H](Cc1cccc2ccccc12)NC(=O)C(=O)NO
u: %
value.observed: 26

1. C[C@H](NC(=O)[C@H](Cc1ccc(NC(=O)OCc2ccccc2)cc1)NC(=O)C(=O)NO)c1ccccc1
2. C[C@H](NC(=O)[C@H](Cc1ccc2ccccc2c1)NC(=O)C(=O)NO)c1ccccc1
Q: Of the two listed items, 1 and 2 , which carries the larger residual activity figure? Select an item and report its label.
Ans: 1
(1: 76%, 2: 37%)

###

Record: Ki reported on Matrix metalloproteinase-14 (Homo sapiens, UniProt P50281).
observation.type: Ki (µM)

compound: CCCCC(CC)COCCCNC(=O)C(=O)NO (stereo not given)
target.under.test: Matrix metalloproteinase-14 (Homo sapiens, UniProt P50281)
Ki (µM): 9

compound: CC(C)C[C@H](NC(=O)C(=O)NO)C(=O)N[C@@H](C)c1ccccc1
target.under.test: Matrix metalloproteinase-14 (Homo sapiens, UniProt P50281)
Ki (µM): 20

compound: C[C@H](NC(=O)[C@H](COCc1ccccc1)NC(=O)C(=O)NO)c1ccccc1
target.under.test: Matrix metalloproteinase-14 (Homo sapiens, UniProt P50281)
Ki (µM): 11

P. CN(C)C(=O)[C@H](Cc1ccccc1)NC(=O)C(=O)NO
Q. C[C@H](NC(=O)[C@H](Cc1ccccc1)NC(=O)C(=O)NO)c1ccccc1
Q: Of the two listed items, P and Q , which carries the larger Ki figure? Select an item and report its label.
Ans: Q
(Q: 14 µM, P: 9.5 µM)

###

- target.under.test: Matrix metalloproteinase-9 (Homo sapiens)
- experimental.details: Percent remaining enzyme activity (RA) in human gelatinase B (matrix metalloprotease-9)
- Parameters: concentration or dose not given beside the values
observation.type: residual activity (%)

compound: CN(C)C(=O)[C@H](Cc1cccc2ccccc12)NC(=O)C(=O)NO
residual activity [%]: 15
--
compound: CN(C)C(=O)[C@H](Cc1ccccc1)NC(=O)C(=O)NO
residual activity [%]: 25
--
compound: C[C@H](NC(=O)[C@H](COCc1ccccc1)NC(=O)C(=O)NO)c1ccccc1
residual activity [%]: 6
--
compound: CNC(=O)[C@H](Cc1ccc(OCc2ccccc2)cc1)NC(=O)C(=O)NO
residual activity [%]: 1

P. CC(OCc1ccccc1)[C@H](NC(=O)C(=O)NO)C(=O)N[C@@H](C)c1ccccc1 (stereo not given in full)
Q. CN(C)C(=O)[C@@H](Cc1ccc(OCc2ccccc2)cc1)NC(=O)[C@H](Cc1ccccc1)NC(=O)C(=O)NO
R. C[C@H](NC(=O)[C@H](Cc1c[nH]c2ccccc12)NC(=O)C(=O)NO)c1ccccc1
S. CC(C)C[C@H](NC(=O)C(=O)NO)C(=O)N(C)C
T. CN(C)C(=O)[C@H](Cc1ccc2ccccc2c1)NC(=O)C(=O)NO
Q: Arrange the 5 compounds by rising residual activity, starting with the smallest. List the labels, following the order given in the request.
Ans: R, Q, P, T, S

###

- target.under.test: Matrix metalloproteinase-14 (Homo sapiens, UniProt P50281)
- experimental.details: Percent remaining enzyme activity (RA) in catalytic domains of the membrane type MT1-MMP (matrix metalloprotease-14)
- Design: concentration or dose not given beside the values
observation.type: residual activity (%)

Examples with answers:
compound.smiles: C[C@H](NC(=O)[C@H](Cc1ccccc1)NC(=O)C(=O)NO)c1ccccc1
residual activity, %: 36
//
compound.smiles: C[C@@H](NC(=O)C(=O)NO)c1ccc2ccccc2c1
residual activity, %: 54
//
compound.smiles: CC(C)C[C@H](NC(=O)C(=O)NO)C(=O)N(C)C
residual activity, %: 61

P. O=C(NO)C(=O)NCCN(C(=O)C(=O)NO)c1cccc2ccccc12
Q. CN(C)C(=O)[C@H](Cc1c[nH]c2ccccc12)NC(=O)C(=O)NO
R. C[C@H](NC(=O)[C@H](Cc1ccc(O)cc1)NC(=O)C(=O)NO)c1ccccc1
Q: Arrange the 3 compounds by rising residual activity, starting with the smallest. List the labels, following the order given in the request.
Ans: P, Q, R

###

- target.under.test: Matrix metalloproteinase-14 (Homo sapiens)
- experimental.details: Percent remaining enzyme activity (RA) in catalytic domains of the membrane type MT1-MMP (matrix metalloprotease-14)
- Design: concentration or dose not given beside the values
observation.type: residual activity (%)

compound.smiles: CC(C)C[C@H](NC(=O)C(=O)NO)C(=O)N[C@@H](C)c1ccccc1
u: %
residual activity: 54
--
compound.smiles: C[C@H](NC(=O)[C@H](Cc1ccc(OCc2ccccc2)cc1)NC(=O)C(=O)NO)c1ccccc1
u: %
residual activity: 69
--
compound.smiles: O=C(NO)C(=O)NCCc1c[nH]c2ccccc12
u: %
residual activity: 48

P. CN(C)C(=O)[C@@H](Cc1ccc(OCc2ccccc2)cc1)NC(=O)[C@H](Cc1ccccc1)NC(=O)C(=O)NO
Q. C[C@H](NC(=O)[C@H](CC(=O)OCc1ccccc1)NC(=O)C(=O)NO)c1ccccc1
Q: Of the two listed items, P and Q , which carries the larger residual activity figure? Select an item and report its label.
Ans: Q

###

- target.under.test: Neutrophil collagenase (Homo sapiens, UniProt P22894)
- experimental.details: Percent remaining enzyme activity (RA) in neutrophil collagenase (matrix metalloprotease-8)
- Set-up: concentration or dose not given beside the values
- Sequence (P22894 101-467 limits assumed): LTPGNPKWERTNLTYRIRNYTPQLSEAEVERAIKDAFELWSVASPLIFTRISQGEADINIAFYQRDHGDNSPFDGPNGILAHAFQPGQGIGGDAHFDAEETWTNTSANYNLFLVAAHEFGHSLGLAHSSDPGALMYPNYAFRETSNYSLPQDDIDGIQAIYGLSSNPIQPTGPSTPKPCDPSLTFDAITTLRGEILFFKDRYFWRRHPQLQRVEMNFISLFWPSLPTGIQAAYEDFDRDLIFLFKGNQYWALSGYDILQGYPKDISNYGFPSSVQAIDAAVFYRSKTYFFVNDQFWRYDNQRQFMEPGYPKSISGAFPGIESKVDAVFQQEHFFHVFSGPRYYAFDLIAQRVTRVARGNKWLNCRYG
observation.type: residual activity (%)

compound: CC(OCc1ccccc1)[C@H](NC(=O)C(=O)NO)C(=O)N[C@@H](C)c1ccccc1 (some centres undefined)
observation.type: residual activity
value.observed: 8
--
compound: CN(C)C(=O)[C@H](COCc1ccccc1)NC(=O)C(=O)NO
observation.type: residual activity
value.observed: 56

I. CN(C)C(=O)[C@@H](Cc1ccc(OCc2ccccc2)cc1)NC(=O)[C@H](Cc1ccccc1)NC(=O)C(=O)NO
II. C[C@H](NC(=O)[C@H](Cc1ccc2ccccc2c1)NC(=O)C(=O)NO)c1ccccc1
Q: // task: argmin of residual activity over [ I , II ] Select an item and report its label.
Ans: II
(II: 4%, I: 10%)

P. C[C@H](NC(=O)[C@H](Cc1ccccc1)NC(=O)C(=O)NO)c1ccccc1
Q. CN(C)C(=O)[C@H](Cc1ccc2ccccc2c1)NC(=O)C(=O)NO
R. C[C@H](NC(=O)C(=O)NO)c1ccc2ccccc2c1
Q: Arrange the 3 compounds by rising residual activity, starting with the smallest. List the labels, following the order given in the request.
Ans: P, Q, R
(P: 1%, Q: 15%, R: 89%)
